# System tested: T1, hPRLR.mmh (soluble monomeric human PRLR) (human)
# T1 construct: called soluble monomeric PRLR protein
# T1 chain: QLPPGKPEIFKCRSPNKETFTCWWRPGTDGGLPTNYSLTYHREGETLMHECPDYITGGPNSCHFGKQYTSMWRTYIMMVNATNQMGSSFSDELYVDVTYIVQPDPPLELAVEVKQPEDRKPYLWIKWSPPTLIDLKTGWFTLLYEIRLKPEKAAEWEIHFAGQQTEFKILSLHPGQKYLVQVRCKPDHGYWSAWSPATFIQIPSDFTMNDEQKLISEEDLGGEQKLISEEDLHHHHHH
# Experiment summary: SPR Biacore, 25 C, mAb capture
# Description: Measurements were conducted on a T200 Biacore instrument. Kinetic association (kₐ) and dissociation (kd) rate constants were determined by processing and fitting the data to a 1:1 binding model using Scrubber 2.0 curve fitting software.
Please respond with reported pKd for every item in the list.
Field pKd (float): negative decimal logarithm of the concentration in molar.

pKd measured on H1H6765P (antibody, human IgG1, V domains shown, Human IgG1 Fc (H1H)) VH: EVQLVESGGGVVRPGGSLRLSCVGSGFSFDDHGMNWVRQGPGKGLEWVSGFNWNGGSTNYAESVKGRFTISRDNARNSLFLQMNSLRAEDTALYYCVRGRSGWFNDAFDVWGPGTMVTVSS VL: EIVLTQSPGTLSLSPGERATLSCRASQTINSNYLAWYRQKPGQTPRLLIYGTSSRATGIPDRFSGSGSGTDFSLTISRLEPEDFAVFYCQQYAGLPTFGPGTKVDIK = 9.91

pKd measured on H1H6958N2 (antibody, human IgG1, V domains shown, Tested with human IgG1 Fc (H1H); also called H2M6958N2) VH: QVQLVESGGGVVQPGRSLRLSCGASGFTFRNYGMQWVRQGPGKGLEWVTLISFDGNDKYYADSVKGRFTISRDNSKNTLFLQMNSLRTEDTAVYYCARGGDFDYWGQGTLVTVSS VL: DIQMTQSPSSLSASVGDRVTITCRASQDIRKDLGWYQQKPGKAPKRLIYAASSLHSGVPSRFSGSGSGTEFTLTISSLQPEDFATYYCLQHNSYPMYTFGQGTKLEIK = 8.93

pKd measured on H1H6790P (antibody, human IgG1, V domains shown, Human IgG1 Fc (H1H)) VH: EVQLVESGGGLVQPGGSLRLSCAASGFTFSSYAMTWVRQAPGKGLEWVSAITGSVGNTYYADSVKGRFTISRDNSKNTLYLQMNSLGAEDTAEYYCAKGAGMTTNWYLDLWGRGTLVTVSS VL: DIVMTQSPDSLAVSLGARATINCKSSQSVLYSSNNQNYLTWYQQKPGQPPKLLIKWASTRESGVPDRFSGSGSGTDFTLTISSLQAEDVAVYYCQQYASSPYTFGQGTKLEIK = 8.85

Values compiled from patent US20180185504A1.
